// provenance: patent US20240417410A1

biological target: KRAS G12C-BRAF complex (Homo sapiens (Human), UniProt P01116+P62937, G12C); experiment: KRAS-BRAF with CYPA (500 nM) interaction assay (TR-FRET, Example 136); conditions: KRAS G12C-BRAF disruption
Sequence (P01116-2 other isoform, or with tags, fused parts or gaps G12C): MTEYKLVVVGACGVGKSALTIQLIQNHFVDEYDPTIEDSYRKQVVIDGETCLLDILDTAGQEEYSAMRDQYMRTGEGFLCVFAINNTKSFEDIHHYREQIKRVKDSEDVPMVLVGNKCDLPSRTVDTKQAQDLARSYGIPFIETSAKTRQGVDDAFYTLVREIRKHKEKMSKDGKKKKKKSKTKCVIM
Sequence (P62937 whole entry): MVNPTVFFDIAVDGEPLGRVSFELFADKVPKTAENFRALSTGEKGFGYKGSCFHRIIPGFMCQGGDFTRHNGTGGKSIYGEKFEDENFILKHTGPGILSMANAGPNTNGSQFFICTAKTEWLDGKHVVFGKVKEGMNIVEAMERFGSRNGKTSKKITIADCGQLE
# pIC50 annotations
Worth noting: pIC50 values are minus log10 of concentrations stated in mol/L.

Previously resolved entries follow.
INSERT INTO assay_data (compound, target_desc, observed_result) VALUES
  ('CO[C@@H](C)c1ncc(N2CCN(CC(F)(F)F)CC2)cc1-c1c2c3cc(cc4c3n1CCC4)-c1csc(n1)C[C@H](NC(=O)[C@H]1C[C@@H]1c1cccnc1)C(=O)N1CCC[C@H](N1)C(=O)OCC(C)(C)C2 (atropisomer, axis not shown; (M))', 'KRAS G12C-BRAF complex (Homo sapiens (Human), UniProt P01116+P62937, G12C)', 8.19),
  ('CO[C@@H](C)c1ncc(N2CCOCC2)cc1-c1c2c3cc(cc4c3n1CC(F)(F)C4)-c1csc(n1)C[C@H](NC(=O)[C@H]1C[C@@H]1c1cccnc1)C(=O)N1CCC[C@H](N1)C(=O)OCC(C)(C)C2 (atropisomer, axis not shown; (M))', 'KRAS G12C-BRAF complex (Homo sapiens (Human), UniProt P01116+P62937, G12C)', 8.09),
  ('CO[C@@H](C)c1ncc(N2CCN(C)CC2)cc1-c1c2c3cc(cc4c3n1CCO4)-c1csc(n1)C[C@H](NC(=O)C1(C)CC1(F)F)C(=O)N1CCC[C@H](N1)C(=O)OCC(C)(C)C2 (stereo partly shown)', 'KRAS G12C-BRAF complex (Homo sapiens (Human), UniProt P01116+P62937, G12C)', 7.63);

Now examine the next entry.
Problem: For the compound CO[C@@H](C)c1ncc(N2CCOCC2)cc1-c1c2c3cc(cc4c3n1CCO4)-c1csc(n1)C[C@H](NC(=O)[C@H]1C[C@@H]1c1cccnc1)C(=O)N1CCC[C@H](N1)C(=O)OCC(C)(C)C2 (atropisomer, axis not shown; (M)) , give its reported pIC50.
Solution: 7.84

----------
Listed compounds paired with reported IC50
tested on: AGS cells (KRAS G12D); assay: Cell viability assay (Cell Counting Kit-8, 3-day); type: cell-based, human; settings: Homo sapiens, 72 h, 72 hrs incubation
Express the result in nM but write the number alone.

Problem: Report measured IC50; entry is CO[C@@H](C)c1ncc(N2CCN(CC(F)(F)F)CC2)cc1-c1c2c3cc(cc4c3n1CCC4)-c1csc(n1)C[C@H](NC(=O)[C@H]1[C@H](C)[C@@H]1C)C(=O)N1CCC[C@H](N1)C(=O)OCC(C)(C)C2 (atropisomer, axis not shown; (M)) [Example 86]
Solution: 45.2

Problem: Give the reported value of IC50 for this record: CO[C@@H](C)c1ncc(N2CCN(C)CC2)cc1-c1c2c3cc(cc4c3n1CCC4)-c1csc(n1)C[C@H](NC(=O)[C@H]1C[C@@H]1c1cncnc1)C(=O)N1CCC[C@H](N1)C(=O)OCC(C)(C)C2 (atropisomer, axis not shown; (M)) [Example 47]
Solution: 10.2

Problem: For the compound CO[C@@H](C)c1ncc(N2CCN(C[C@@H]3CNCCO3)CC2)cc1-c1c2c3cc(cc4c3n1CCC4)-c1csc(n1)C[C@H](NC(=O)[C@H]1[C@H](C)[C@@H]1C)C(=O)N1CCC[C@H](N1)C(=O)OCC(C)(C)C2 (atropisomer, axis not shown; (M)) [Example 119] , give its measured IC50 value.
Solution: 4.4

Problem: Note down IC50 recorded for CO[C@@H](C)c1ncc(N2CCN(C)CC2)cc1-c1c2c3cc(cc4c3n1CCC4)-c1csc(n1)C[C@H](NC(=O)[C@@H]1C[C@H]1c1cncnc1C)C(=O)N1CCC[C@H](N1)C(=O)OCC(C)(C)C2 (atropisomer, axis not shown; (M)) [Example 112]
Solution: 3.4

Problem: Query IC50 for CO[C@@H](C)c1ncc(N2CCOCC2)cc1-c1c2c3cc(cc4c3n1CCO4)-c1csc(n1)C[C@H](NC(=O)[C@H]1C[C@@H]1c1cccnc1)C(=O)N1CCC[C@H](N1)C(=O)OCC(C)(C)C2 (atropisomer, axis not shown; (M)) [Example 97]
Solution: 2.6

Problem: Please indicate IC50 recorded for CO[C@@H](C)c1ncc(N2CCN(C3CC3)CC2)cc1-c1c2c3cc(cc4c3n1CCO4)-c1csc(n1)C[C@H](NC(=O)[C@H]1[C@H](C)[C@@H]1C)C(=O)N1CCC[C@H](N1)C(=O)OCC(C)(C)C2 (atropisomer, axis not shown; (M)) [Example 106]
Solution: 8.7

----------
system: AGS cells (KRAS G12D); assay: Cell viability assay (Cell Counting Kit-8, 3-day); format: cell-based, human; details: 72 hrs incubation
observed.property: IC50 (µM)
The answer is to be given in µM; state only the numeric part.

Problem: Given COC(C)c1ncc(N2CCN(C)CC2)cc1-c1c2c3cc(cc4c3n1CCO4)-c1csc(n1)CC(NC(=O)C1CC1C)C(=O)N1CCCC(N1)C(=O)OCC(C)(C)C2 (stereo not shown) , respond with its IC50.
Solution: 0.0217

----------
tested on: SW620 cells (KRAS G12V); experiment: Cell viability assay (Cell Counting Kit-8, 3-day); format: cell-based, human; settings: Homo sapiens, SW-620; SW620, 72 hrs incubation
observed.property: pIC50
Field pIC50 (float): negative decimal logarithm of the concentration in molar.

Example entries and their recorded answers appear below.
INSERT INTO results (molecule, target_desc, observed_property, observed_result) VALUES
  ('CO[C@@H](C)c1ncc(N2CCOCC2)cc1-c1c2c3cc(cc4c3n1CC(F)(F)C4)-c1csc(n1)C[C@H](NC(=O)[C@H]1C[C@@H]1c1ccccc1)C(=O)N1CCC[C@H](N1)C(=O)OCC(C)(C)C2 (atropisomer, axis not shown; (M))', 'SW620 cells (KRAS G12V)', 'pIC50', 8.49),
  ('CO[C@@H](C)c1ncc(N2CCN(C)CC2)cc1-c1c2c3cc(c(F)c4c3n1CCC4)-c1csc(n1)C[C@H](NC(=O)[C@H]1[C@H](C)[C@@H]1C)C(=O)N1CCC[C@H](N1)C(=O)OCC(C)(C)C2 (atropisomer, axis not shown; (M))', 'SW620 cells (KRAS G12V)', 'pIC50', 8.80),
  ('CO[C@@H](C)c1ncc(N2CCN(C)CC2)cc1-c1c2c3cc(cc4c3n1CCC4)-c1csc(n1)C[C@H](NC(=O)[C@@H]1[C@@H]3COC[C@@H]31)C(=O)N1CCC[C@H](N1)C(=O)OCC(C)(C)C2 (atropisomer, axis not shown; (M))', 'SW620 cells (KRAS G12V)', 'pIC50', 8.89),
  ('CO[C@@H](C)c1ncc(N2CCN(CC(F)(F)F)CC2)cc1-c1c2c3cc(cc4c3n1CCO4)-c1csc(n1)C[C@H](NC(=O)[C@H]1C[C@@H]1c1cccnc1)C(=O)N1CCC[C@H](N1)C(=O)OCC(C)(C)C2 (atropisomer, axis not shown; (M))', 'SW620 cells (KRAS G12V)', 'pIC50', 9.22),
  ('CO[C@@H](C)c1ncc(N2CCN(C3CC3)CC2)cc1-c1c2c3cc(cc4c3n1CCO4)-c1csc(n1)C[C@H](NC(=O)[C@H]1[C@H](C)[C@@H]1C)C(=O)N1CCC[C@H](N1)C(=O)OCC(C)(C)C2 (atropisomer, axis not shown; (M))', 'SW620 cells (KRAS G12V)', 'pIC50', 9.40);

Problem: Tell us which pIC50 value is on record for CO[C@@H](C)c1ncc(N2CCN3CCCC[C@@H]3C2)cc1-c1c2c3cc(cc4c3n1CCC4)-c1csc(n1)C[C@H](NC(=O)[C@H]1C[C@@H]1C)C(=O)N1CCC[C@H](N1)C(=O)OCC(C)(C)C2 (atropisomer, axis not shown; (M))
Solution: 8.77

Problem: Given CO[C@@H](C)c1ncc(N2CCN(C)CC2)cc1-c1c2c3cc(cc4c3n1CCC4)-c1csc(n1)C[C@H](NC(=O)[C@@H]1C[C@H]1c1ccncc1)C(=O)N1CCC[C@H](N1)C(=O)OCC(C)(C)C2 , respond with its pIC50.
Solution: 8.70

----------
tested on: AGS cells (KRAS G12D); experiment: Cell viability assay (Cell Counting Kit-8, 3-day); type: cell-based, human; details: Homo sapiens, 72 h, 72 hrs incubation
The entries below are paired with their reported pIC50.
Recall that pIC50 is obtained by taking minus log10 of the concentration measured in molar.

Previously resolved entries follow.
INSERT INTO assay_data (compound, observed_property, observed_result) VALUES
  ('CO[C@@H](C)c1ncc(N2CCN(C)CC2)cc1-c1c2c3cc(cc4c3n1CC(F)(F)C4)-c1csc(n1)C[C@H](NC(=O)[C@H]1[C@H](C)[C@@H]1C)C(=O)N1CCC[C@H](N1)C(=O)OCC(C)(C)C2 (atropisomer, axis not shown; (M))', 'pIC50', 8.04),
  ('CO[C@@H](C)c1ncc(N2CCN(CCN3CCCC3=O)CC2)cc1-c1c2c3cc(cc4c3n1CCC4)-c1csc(n1)C[C@H](NC(=O)[C@H]1[C@H](C)[C@@H]1C)C(=O)N1CCC[C@H](N1)C(=O)OCC(C)(C)C2 (atropisomer, axis not shown; (M))', 'pIC50', 8.62),
  ('CO[C@@H](C)c1ncc(N2CCOCC2)cc1-c1c2c3cc(cc4c3n1CCO4)-c1csc(n1)C[C@H](NC(=O)[C@H]1C[C@@H]1c1cncnc1)C(=O)N1CCC[C@H](N1)C(=O)OCC(C)(C)C2 (atropisomer, axis not shown; (M))', 'pIC50', 8.40),
  ('CO[C@@H](C)c1ncc(N2CCN(C)CC2)cc1-c1c2c3cc(cc4c3n1CCO4)-c1csc(n1)C[C@H](NC(=O)[C@H]1[C@@H]3COC[C@@H]31)C(=O)N1CCC[C@H](N1)C(=O)OCC(C)(C)C2 (atropisomer, axis not shown; (M))', 'pIC50', 7.89),
  ('CO[C@@H](C)c1ncc(N2CCN(C)CC2)cc1-c1c2c3cc(cc4c3n1CC(C)(C)C4)-c1csc(n1)C[C@H](NC(=O)[C@H]1[C@H](C)[C@@H]1C)C(=O)N1CCC[C@H](N1)C(=O)OCC(C)(C)C2 (atropisomer, axis not shown; (M))', 'pIC50', 7.12);

Problem: Provide pIC50, system AGS cells (KRAS G12D), entry CO[C@@H](C)c1ncc(N2CCOCC2)cc1-c1c2c3cc(cc4c3n1CCO4)-c1csc(n1)C[C@H](NC(=O)[C@H]1C[C@@H]1c1ccccc1)C(=O)N1CCC[C@H](N1)C(=O)OCC(C)(C)C2 (atropisomer, axis not shown; (M))
Solution: 7.92

Problem: Quote AGS cells (KRAS G12D) pIC50 for entry CO[C@@H](C)c1ncc(N2CCOCC2)cc1-c1c2c3cc(cc4c3n1C(C)(C)CC4)-c1csc(n1)C[C@H](NC(=O)[C@H]1C[C@@H]1C)C(=O)N1CCC[C@H](N1)C(=O)OCC(C)(C)C2 .
Solution: 5.33

Problem: // fetch pIC50; item: CO[C@@H](C)c1ncc(N2CCN(CC(F)(F)F)CC2)cc1-c1c2c3cc(cc4c3n1CCO4)-c1csc(n1)C[C@H](NC(=O)[C@H]1[C@H](C)[C@@H]1C)C(=O)N1CCC[C@H](N1)C(=O)OCC(C)(C)C2 (atropisomer, axis not shown; (M)) ; system: AGS cells (KRAS G12D)
Solution: 7.89
